Target: Substance-P receptor (Homo sapiens, UniProt P25103)
Sequence (P25103 whole entry): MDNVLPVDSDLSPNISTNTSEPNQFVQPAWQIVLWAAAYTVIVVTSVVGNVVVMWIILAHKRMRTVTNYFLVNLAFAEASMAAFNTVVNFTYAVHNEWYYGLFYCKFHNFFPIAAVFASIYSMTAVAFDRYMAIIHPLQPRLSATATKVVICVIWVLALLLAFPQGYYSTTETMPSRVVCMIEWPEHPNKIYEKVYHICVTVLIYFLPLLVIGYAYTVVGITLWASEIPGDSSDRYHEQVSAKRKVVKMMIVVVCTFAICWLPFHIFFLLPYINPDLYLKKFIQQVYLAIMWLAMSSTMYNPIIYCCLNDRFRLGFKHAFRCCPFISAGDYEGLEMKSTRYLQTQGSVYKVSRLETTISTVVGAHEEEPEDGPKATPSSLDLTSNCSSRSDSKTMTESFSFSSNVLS
outcomeMeasure: IC50 (nM)

Cc1cc(C)cc(/C(F)=C2/CC[C@H](NC(=O)c3ccnc4ccccc34)C[C@H]2Cc2ccccc2)c1    380

(P) Cc1cc(C)cc(/C(F)=C2\CC[C@@H](NC(=O)c3ccnc4ccccc34)C[C@@H]2Cc2ccccc2)c1
(Q) Cc1cc(C)cc(C(=O)N2CC[C@H](NC(=O)c3ccnc4ccccc34)C[C@H]2Cc2ccccc2)c1
**Q:** Field: lower recorded IC50 (choose P or Q ) Mark your selection by writing its label.
**A:** Q
